Tested on: MDA-MB-435
Experiment Summary: NCI tumour cell line growth inhibition, 48 h
Each item that follows carries a reported TGI.
Measurement Label: TGI

INSERT INTO results (molecule, observed_value) VALUES
  ('O=S(=O)(N=S(c1ccccc1)c1ccccc1)c1ccccc1', '> 100 µM'),
  ('CN1C/C=C\CCOc2cccc(c2)-c2ccnc(n2)Nc2cccc(c2)C1', '0.195 µM'),
  ('O=Cc1ccc(OCc2cccc(COc3ccc(/C=N\Nc4ccc([N+](=O)[O-])cc4[N+](=O)[O-])cc3)n2)cc1', '> 100 µM'),
  ('COC(CNC(=O)C(C)NC(=O)CCc1ccccc1)OC (stereo not drawn)', '> 100 µM'),
  ('COc1cc(Cn2c3c(c4cc(O)ccc42)Cc2ccccc2C3=O)cc(OC)c1', '> 100 µM'),
  ('COC1=C(C)C(=O)c2c(c(COC(N)=O)c3n2CC2C3N2C)C1=O (stereo not drawn)', '0.0921 µM'),
  ('CC(C)=CCC/C(C)=C/C=C/C(C)=C/C=C/C(C)=C/C=C/C=C(C)/C=C/C=C(C)/C=C/[C@H]1C(C(C)(C)O)CC[C@]1(C)O (stereo partly drawn)', '61.2 µM'),
  ('NCC1Nc2ccccc2[C@@H](O)C1O (stereo partly drawn)', '> 100 µM'),
  ('CC1OC(OC2C(O[C@H]3CC[C@@]4(C)C(=CC[C@H]5[C@@H]6C[C@@H]7O[C@]8(CC[C@@H](CO)CO8)[C@@H](C)[C@@H]7[C@@]6(C)CC[C@@H]54)C3)OC(CO)C(O)C2OC2OC(CO)C(O)C(O)C2O)C(O)C(O)C1O (stereo partly drawn)', '3.48 µM'),
  ('COC(=O)C1=CNC=C(C(=O)OC)C1C1=CC(=O)C(C)=CC1=O', '29.5 µM'),
  ('c1cc(CNC23CC4CC(CC(C4)C2)C3)cc(C[N+](Cc2cccc(CNC34CC5CC(CC(C5)C3)C4)c2)(Cc2cccc(CNC34CC5CC(CC(C5)C3)C4)c2)Cc2cccc(CNC34CC5CC(CC(C5)C3)C4)c2)c1 (stereo not drawn)', '8.81 µM'),
  ('NC(Cc1ccccc1)C(=O)N[C@H]1c2ccsc2/C(=N/O)[C@H]1O (stereo partly drawn)', '> 100 µM'),
  ('NC(N)=NCCC[C@H](N)C(=O)NCC(=O)N[C@@H](CC(=O)O)c1ncc(NC(=O)C(F)(F)F)o1', '> 25 µM'),
  ('CCN(CC)C(=O)Cn1c(C)cc2ccccc21', '> 100 µM'),
  ('COc1nc2ccccc2cc1-c1nc2c(cnn2-c2ccc(Br)cc2)c(=O)[nH]1', '0.024 µM'),
  ('NS(=O)(=O)c1ccc(NC2(C(=O)O)CCCC2)cc1', '> 100 µM'),
  ('Cc1ccc2c(c1)C(C(=O)N[C@@H]1C(=O)N3[C@@H]1SC(C)(C)[C@@H]3C(=O)O)OCCC2 (stereo partly drawn)', '> 100 µM'),
  ('CCOCc1nc2c(OC)cc(-c3nc4ccc(N5CCN(C)CC5)cc4[nH]3)c(OC)c2[nH]1', '45.8 µM');

----------
Test system: NCI-H226 lung
Experiment Summary: NCI tumour cell line growth inhibition, 48 h
Each item that follows carries a reported GI50.
Measurement Label: GI50

INSERT INTO assay_data (compound, measurement_label, observed_value) VALUES
  ('COc1cc2ncnc(Nc3ccc(C)c(O)c3)c2cc1OC', 'GI50', '20.5 µM'),
  ('COC1=CC(=O)c2nc(-c3cccc(C)n3)[nH]c2C1=O', 'GI50', '21.7 µM'),
  ('CCCCC(O)(c1ccc(Cl)cc1)C(CN1CCOCC1)c1ccc(Cl)cc1 (stereo not given)', 'GI50', '11.8 µM'),
  ('O=C1OC(C(O)CO)C(=O)C1=O (stereo not given)', 'GI50', '> 10000 µM'),
  ('C[C@@]12CC=C3c4nc(Nc5cccc(O)c5)sc4CC[C@]3(C)[C@H]1CC[C@]1(C)C(=O)CC[C@@H]21', 'GI50', '2.86 µM'),
  ('CC(C)n1nc(-c2cc3cc(O)ccc3[nH]2)c2c(N)ncnc21', 'GI50', '0.117 µM'),
  ('COc1cc(/C=C/c2cc(/C=C/c3ccc(O)c(OC)c3)n(C(=O)Nc3ccc(F)c(Cl)c3)n2)ccc1O', 'GI50', '0.491 µM'),
  ('Clc1ccc(C2=Nn3c(COc4ccccc4Cl)nnc3SC2)c(Cl)c1', 'GI50', '14.6 µM'),
  ('CN1C/C=C\CCOc2cccc(c2)-c2ccnc(n2)Nc2cccc(c2)C1', 'GI50', '0.0692 µM'),
  ('COc1ccc(Nc2c3ccccc3nc3occc23)cc1', 'GI50', '31.9 µM');
